Biological target: recombinant human TFPI (tissue factor pathway inhibitor) (human, UniProt P10646 29-304)
Test: cell-based or functional assay
% of Normalized, TF/FVIIa/FX complex assay, Ab 100 nM values by entry

INSERT INTO assay_data (binder, readout_value) VALUES
  ('clone 12 (antibody, V domains shown, human IgG4/kappa IgG as purified; also called No. 12 antibody) VH: EVQLVESGGGLVKPGGSLRLSCAASGFTFSSYAMNWVRQAPGKGLEWVGTITTGGSHTYYADSVEGRFTISRDNAKNSLYLQMNSLRAEDTAVYYCARQDGHFLMDYWGQGTLVTVSS VL: DVVMTQTPLSLPVTLGQPASISCKSSPSLLDIDGKTYLNWLQQRPGQSPKRLIYLVSKLDSGVPDRFTGSGSGTDFTLKISRVEAEDVGVYYCWQGTHFPFTFGQGTKVEIKR', '99.9%'),
  ('clone 13 (antibody, V domains shown) VH: EVQLVESGGGLVKPGGSLRLSCAASGFTFSSYAMNWVRQAPGKGLEWVGTITTGGSHTYYADSVEGRFTISRDNAKNSLYLQMNSLRAEDTAVYYCARQDGNFLMDYWGQGTLVTVSS VL: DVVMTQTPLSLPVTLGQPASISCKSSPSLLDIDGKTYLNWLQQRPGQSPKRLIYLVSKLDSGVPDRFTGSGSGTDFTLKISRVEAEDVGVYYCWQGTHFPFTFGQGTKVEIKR', '101%');

Challenge: Bench note: what % of Normalized, TF/FVIIa/FX complex assay, Ab 100 nM did clone 1202 (antibody, V domains shown, scFv on yeast at selection; human IgG4/kappa IgG as purified; also called No. 1202 antibody) VH: EVQLVESGGGLVKPGGSLRLSCAASGFTFSSYAMNWVRQAPGKGLEWVGTITTGGSYTYYADSVDGRFTISRDNAKNSLYLKMNSLRAEDTAVYYCARQDGNFLMDYWGQGTLVTVSS VL: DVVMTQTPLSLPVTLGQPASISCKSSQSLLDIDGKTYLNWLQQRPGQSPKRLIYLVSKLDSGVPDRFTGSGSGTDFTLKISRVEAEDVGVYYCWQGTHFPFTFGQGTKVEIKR show?
Response given: 101%

Challenge: Bench note: what % of Normalized, TF/FVIIa/FX complex assay, Ab 100 nM did clone 1023 (antibody, V domains shown, scFv on yeast at selection; human IgG4/kappa IgG as purified) VH: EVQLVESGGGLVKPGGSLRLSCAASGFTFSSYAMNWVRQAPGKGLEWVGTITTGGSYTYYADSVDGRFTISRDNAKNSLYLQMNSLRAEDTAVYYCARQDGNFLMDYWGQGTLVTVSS VL: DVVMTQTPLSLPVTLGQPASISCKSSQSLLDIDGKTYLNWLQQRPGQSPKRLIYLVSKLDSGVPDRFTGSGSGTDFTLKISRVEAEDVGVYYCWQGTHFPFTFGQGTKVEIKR show?
Response given: 99.8%
